System: HBV rcDNA in HepDE19 cells
MEASUREMENT NOTES: HepDE19 assay with bDNA quantitation of HBV rcDNA
Type: cell-based, hepatitis B virus
RUN CONDITIONS: Hepatitis B virus, HepDE19, HepDE19 assay, inhibition of rcDNA formation, bDNA quantitation; read-out: DE-19bDNA EC50
ASSAY METRIC: EC50 (nM)
Number in nM, nothing else.

CN(C(=O)c1cc2sc(Cl)cc2[nH]1)C1COCc2[nH]c(=O)c3cc(F)ccc3c21 (racemic) ... 80
CN(C(=O)c1ccc(F)c(Br)c1)[C@@H]1COCc2[nH]c(=O)c3cc(F)c(F)cc3c21 ... 10

Data request: Which measured EC50 value corresponds to CN(C(=O)c1cc2cc(F)c(C(F)F)cc2[nH]1)[C@@H]1COC(O)c2[nH]c(=O)c3cc(F)c(F)cc3c21 (stereo partly shown) ?
Data returned: 10

Data request: // repeat for `CN(C(=O)c1cc2cc(Cl)cnc2[nH]1)[C@@H]1COCc2[nH]c(=O)c3cc(F)c(F)cc3c21` and report
Data returned: 120

Data request: Also, `CN(C(=O)c1ccc(Cl)c(Cl)c1)[C@@H]1COCc2[nH]c(=O)c3cc(F)c(F)cc3c21` please.
Data returned: 10

Data request: # iterate: `CN(C(=O)C1Cc2ccccc2C1)[C@@H]1COCc2[nH]c(=O)c3cc(F)c(F)cc3c21`
Data returned: 150

Data request: Please do the same for `CN(C(=O)c1ccc2ncccc2c1)[C@@H]1COCc2[nH]c(=O)c3cc(F)c(F)cc3c21` as well.
Data returned: 1600
